Every entry's value here was drawn from the Human Domainome abundance scans (Beltran et al. 2025).

B1: Syntaxin-binding protein 4, residues 493 to 538; numbered along this chain, Q6ZWJ1 (parent)
chain: LDMDCLPYGWEEAYTADGIKYFINHVTQTTSWIHPVMSVLNLSRSE

variants of: B1; assay: abundance fitness (aPCA) (normalised: wild type 0, dead -1); higher = more abundant; growth selection in yeast, the domain comes from the species named; conditions: Homo sapiens
Given measured abundance fitness, output TRUE if it is greater than or equal to -0.7 and FALSE if not.

I'd appreciate it if you could say whether Y14I has abundance fitness at least equal to -0.7. FALSE

I'd appreciate it if you could say whether W32T has abundance fitness at least equal to -0.7. FALSE

I'd appreciate it if you could say whether W10T has abundance fitness at least equal to -0.7. FALSE

I'd appreciate it if you could say whether S31G has abundance fitness at least equal to -0.7. TRUE

I'd appreciate it if you could say whether P35C has abundance fitness at least equal to -0.7. FALSE

I'd appreciate it if you could say whether H25W has abundance fitness at least equal to -0.7. FALSE

I'd appreciate it if you could say whether A13D has abundance fitness at least equal to -0.7. FALSE

I'd appreciate it if you could say whether L42A has abundance fitness at least equal to -0.7. TRUE

I'd appreciate it if you could say whether G9M has abundance fitness at least equal to -0.7. FALSE

I'd appreciate it if you could say whether A13P has abundance fitness at least equal to -0.7. FALSE

I'd appreciate it if you could say whether T30P has abundance fitness at least equal to -0.7. FALSE

I'd appreciate it if you could say whether I23M has abundance fitness at least equal to -0.7. FALSE

I'd appreciate it if you could say whether H25T has abundance fitness at least equal to -0.7. TRUE

I'd appreciate it if you could say whether N24W has abundance fitness at least equal to -0.7. TRUE

I'd appreciate it if you could say whether H25A has abundance fitness at least equal to -0.7. FALSE

I'd appreciate it if you could say whether Y21G has abundance fitness at least equal to -0.7. FALSE

I'd appreciate it if you could say whether M3N has abundance fitness at least equal to -0.7. TRUE

I'd appreciate it if you could say whether I23D has abundance fitness at least equal to -0.7. FALSE

I'd appreciate it if you could say whether E11L has abundance fitness at least equal to -0.7. FALSE

I'd appreciate it if you could say whether A16F has abundance fitness at least equal to -0.7. FALSE

I'd appreciate it if you could say whether S45W has abundance fitness at least equal to -0.7. FALSE

I'd appreciate it if you could say whether F22S has abundance fitness at least equal to -0.7. FALSE

I'd appreciate it if you could say whether I19V has abundance fitness at least equal to -0.7. TRUE
